The reported measurements were obtained from ChEMBL document CHEMBL5537203.

Test: MRT (0 to infinity) in ICR mouse at 10 mg/kg,po administration measured upto 24 hrs by LC-MS/MS analysis
Type: ADME, organism-based
Details: in vivo
Observation type: MRT inf (h)
Answers are plain numbers, in h.

Record excerpt, results attached:
{"Smiles text": "CN1CCN([C@H]2CC(F)(F)c3cc(NC(=O)c4cccc(C#Cc5cncc(N6CCOCC6)c5)c4)ccc32)CC1", "Measurement unit": "h", "MRT inf": 5.78}
{"Smiles text": "COc1cncc(C#Cc2cc(C(=O)Nc3ccc4c(c3)C(F)(F)C[C@@H]4N3CCN(C)CC3)ccc2F)c1", "Measurement unit": "h", "MRT inf": 9.67}

### Prompt Would you mind telling me what MRT inf value was observed for CN1CCN([C@H]2CC(F)(F)c3cc(NC(=O)c4ccc(F)c(C#Cc5cncc(N6CCOCC6)c5)c4)ccc32)CC1 ?
### Response 6.39
